assay: amyloid nucleation score (Sup35N fusion, yeast selection) (log enrichment); library NNK3; higher = more nucleation; inactive = no reads after selection;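 further: zero at mode of non-aggregating sequences after 7 days selection at 30°C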
Assay readout: amyloid nucleation score

| Substance | amyloid nucleation score |
| --- | --- |
| ILIRITGAFYIMIINNRRLL | inactive |
| FVTKRCFDMLF | inactive |
| QQEKLCLKHTSQVDI | inactive |
| AFYVVLTNTVYVGWLQE | inactive |
| CLVHEVPWRQMGSDLNKAAS | inactive |

Exam item: Requested field: amyloid nucleation score. Item: "CMCRLEGRTSDLCQESGSCC"
Marked response: -1.13

Exam item: One more substance: "VIRIGDPILTV"
Marked response: inactive

###

Item-by-item account of amyloid nucleation score
test: amyloid nucleation score (Sup35N fusion, yeast selection) (log enrichment); library NNK2; higher = more nucleation; inactive = no reads after selection
Form: value (number only, do not type unit).

Below are worked cases with known answers.
| Monomer sequence | amyloid nucleation score |
| --- | --- |
| CSLQYYSLRNDRDRVTELRR | 0.475 |
| CFRNWACMSSQRYCMVVRGN | -1.58 |
| NGVRSWSQHLWKRGRWEG | 1.69 |
| SGPRLTYSTLSKICALVQAE | 0.457 |
| LLFVLAKGNKTCSTPCIEIH | -0.628 |
| SVGMKLRREEFGRSAVRAVL | 0.901 |
| INSVFNGIGRVYRHW | -0.554 |

Then there is this sequence:
Exam item: Requested field: amyloid nucleation score. Item: "WRYIAVNFSNAFNDLVDSCA"
Marked response: 0.117

###

Item-by-item account of amyloid nucleation score
assay: amyloid nucleation score (Sup35N fusion, yeast selection) (log enrichment); library NNK1; higher = more nucleation; inactive = no reads after selection
Form: value (number only, do not type unit).

| Substance | amyloid nucleation score |
| --- | --- |
| LDIVWVDSVIVISLMMLTYC | 0.199 |
| HCMGGNLFLF | -0.463 |
| FSFSIAMVNLVEDATVDCAG | -0.048 |
| YASSYNKRCNNVMNVVW | -0.299 |
| ARATQAEYRIERRGRFCILS | 0.21 |

Exam item: Requested field: amyloid nucleation score. Item: "VVVVMRR"
Marked response: 1.94

Exam item: One more substance: "NSRNDLVMLILLPSSRAGRL"
Marked response: 0.325

Exam item: One more substance: "QLVIILERRSWCHIL"
Marked response: 2.42

###

test: amyloid nucleation score (Sup35N fusion, yeast selection) (log enrichment); library NNK1; higher = more nucleation; inactive = no reads after selection
Decision: amyloid nucleation score compared against 0.09; not below it gives Condition met, below it gives Condition not met.

Examples with answers:
| Substance | Label value |
| --- | --- |
| YWAKCGWQAGKRYEV | Condition met |
| YASTSNILLSIS | Condition met |
| RTFGYGHHIAGGCRDYRVYR | Condition not met |
| DYMDSCGYVDSATRYKVSEM | Condition not met |
| GFNIDT | Condition met |

Exam item: Hello, I need to know if "IFKDLCLTTSGLDIDPNFND" has measured amyloid nucleation score not below 0.09. Thanks!
Marked response: Condition met

Exam item: One more substance: "GSWCSRIK"
Marked response: Condition met

Exam item: One more substance: "AVLSGRHWHTLYNSIALSEL"
Marked response: Condition met

Exam item: One more substance: "CRWSVLGREFSSQFVCWEDW"
Marked response: Condition not met

Exam item: One more substance: "LKNTVHWTADHFRVTSP"
Marked response: Condition not met

Exam item: One more substance: "DLTGKVRYQSVLPFVASPSM"
Marked response: Condition met

Exam item: One more substance: "ERAKRSY"
Marked response: Condition met

Exam item: One more substance: "SFMQFDIRFT"
Marked response: Condition met

###

assay: amyloid nucleation score (Sup35N fusion, yeast selection) (log enrichment); library NNK2; higher = more nucleation; inactive = no reads after selection
Decision: amyloid nucleation score compared against 1; not below it gives condition met, below it gives condition not met.

Examples with answers:
| Monomer sequence | Label value |
| --- | --- |
| GLTGRPQRLIVWAYDLERLW | condition not met |
| NDLSWVRLSYHGLVLLGDVM | condition not met |
| NCSSMFCIICKKCCVDAFIL | condition met |

Now take the following sequence into account.
Exam item: Hello, I need to know if "IRRGTYNFLMFQKDSFEYVS" has measured amyloid nucleation score not below 1. Thanks!
Marked response: condition not met

###

experiment: amyloid nucleation score (Sup35N fusion, yeast selection) (log enrichment); library NNK2; higher = more nucleation; inactive = no reads after selection
Decision: amyloid nucleation score compared against -0.2; not below it gives Satisfied, below it gives Not satisfied.

Examples with answers:
| Substance | Label value |
| --- | --- |
| LFAYCMDSHLHTTSKFILTL | Satisfied |
| MRSDYTSWVWVCVFMLTLGV | Not satisfied |
| EMCGATRG | Satisfied |
| SDNAEGVSANFFVRPILSVF | Not satisfied |
| SWPPKAQLMAVARCSAREAD | Not satisfied |

Exam item: Hello, I need to know if "SRNISQKLHTYMTYGSKVGY" has measured amyloid nucleation score not below -0.2. Thanks!
Marked response: Not satisfied

Exam item: One more substance: "SDMTNS"
Marked response: Not satisfied

###

experiment: amyloid nucleation score (Sup35N fusion, yeast selection) (log enrichment); library NNK1; higher = more nucleation; inactive = no reads after selection
Kindly note that classification relies on amyloid nucleation score with these boundaries: low end = under -0.3, middle = from -0.3 up to 0.5, high end = 0.5 and over

| Monomer sequence | Label value |
| --- | --- |
| FTGDVPEDTLRLSSFENMRR | middle |
| FLAIILSWPFSAQFGFNVEG | high end |
| NLLLYVYKKLCFGFVKECII | low end |
| DLVAVQESWTLYSLVPQLFY | middle |

Exam item: Field: class (amyloid nucleation score) — entry: "ISWVSPDLVLSYPVYQPDGL"
Marked response: high end

Exam item: One more sequence: "GMEFMIMGNLVITGVIDKCH"
Marked response: middle

Exam item: One more sequence: "CFPPSNCYLLYKLCVLLRIN"
Marked response: middle

Exam item: One more sequence: "MILFSYNG"
Marked response: high end

Exam item: One more sequence: "MKNFPLYSCP"
Marked response: low end

Exam item: One more sequence: "SIWCGRYIIMESVGTPLRSR"
Marked response: middle

Exam item: One more sequence: "LRNVYMCVQWGFMVETGASC"
Marked response: high end

Exam item: One more sequence: "MQVHARFYSFREEDIAGRAR"
Marked response: low end

Exam item: One more sequence: "GVQWKLIFIGQCAVAVAWLA"
Marked response: low end

Exam item: One more sequence: "GLCDNHINVVVVS"
Marked response: high end

Exam item: One more sequence: "TWYLDFFSSPFLVGFSLSFG"
Marked response: high end

Exam item: One more sequence: "HMISVDITLVSLWRRIL"
Marked response: low end

###

test: amyloid nucleation score (Sup35N fusion, yeast selection) (log enrichment); library NNK3; higher = more nucleation; inactive = no reads after selection
Assay readout: amyloid nucleation score

| Substance | amyloid nucleation score |
| --- | --- |
| GVAPYFQCVLIEEERVEGQG | inactive |
| RVVNFFVGVNTNEAMFKRSV | 2.71 |
| HASSWFYWRIFASGLNSDR | inactive |
| RTISGYSPSIVGQRDSRGFL | inactive |
| VKEPMVPITLLSSTSSLDGM | inactive |
| NSFIVVIYYRVRSYRYTD | inactive |

Exam item: Requested field: amyloid nucleation score. Item: "FDDVGSNSLHCIMMHELLGV"
Marked response: inactive

Exam item: One more substance: "WRYWDSFFL"
Marked response: inactive

Exam item: One more substance: "VSKESILGGRCVM"
Marked response: inactive

Exam item: One more substance: "RCIMRYCAKALCKVICSQWL"
Marked response: inactive

###

assay: amyloid nucleation score (Sup35N fusion, yeast selection) (log enrichment); library NNK1; higher = more nucleation; inactive = no reads after selection
Item-by-item account of amyloid nucleation score
Form: value (number only, do not type unit).

Below are worked cases with known answers.
| Substance | amyloid nucleation score |
| --- | --- |
| LAGMTSKHFTLRMMSHLDSY | 0.043 |
| IAIFMYCM | 7.47 |
| NSRAGLYVISSSYCRSMLDR | 1.48 |
| IFGYMSGS | 0.543 |
| YSGPGAGFGGLLCIGNAQNL | -0.108 |

Then there is this substance:
Exam item: Requested field: amyloid nucleation score. Item: "HHPYFSAMM"
Marked response: 0.22
